// reported melting point for each item listed
Please state the figure in °C; there is no need to write the unit.

| molecule | units-label | recorded-result |
| --- | --- | --- |
| CCC[N+](=O)[O-] | °C | -108 |
| CC(C)(O)Cc1ccc(Cl)cc1 | °C | 34 |
| C#CCCCCCCCC#C | °C | -17 |

The reported melting point of the molecule Nc1c(Cl)cc(Cl)cc1Cl was 78.5

The reported melting point of the molecule [N-]=[N+]=NC(=O)c1ccccc1 was 32

The reported melting point of the molecule O=C1c2ccccc2-c2ccc3c4c(ccc1c24)-c1ccccc1C3=O was 385

The reported melting point of the molecule OC(CCN1CCCCC1)(c1ccccc1)C1CC2C=CC1C2 (stereo not given) was 114

The reported melting point of the molecule CCCCCCCC1CCCC(=O)O1 (stereo not given) was -12

The reported melting point of the molecule CC1CNCCN1 (stereo not given) was 62

The reported melting point of the molecule CC(=O)c1ccc(O)cc1C was 128
